Please provide measured selectivity ratio for the entries that follow.
- procedure.details: Selectivity index, ratio of CC50 for African green monkey Vero B cells to EC50 for Dengue virus serotype 2 infected in African green monkey Vero B cells
- Assay type: toxicity
- conditions: read-out: Ratio CC50/EC50
Numbers only.

{"smi": "Cc1ccc(Nc2nc(Cl)nc3ccccc23)c(-c2cc(C)n[nH]2)c1", "selectivity ratio": 11}
{"smi": "COc1ccc(Cn2cnc3nc(Cl)nc(Cl)c32)cc1", "selectivity ratio": 1}
{"smi": "Cc1ccc(Nc2nc(Cl)nc3[nH]cnc23)c(-c2cc(C)n[nH]2)c1", "selectivity ratio": 5}
{"smi": "Cc1ccc(Nc2nc(Nc3ccc(F)cc3)nc3ccccc23)c(-c2cc(C)n[nH]2)c1", "selectivity ratio": 1}
{"smi": "Cc1ccc(Nc2nc(Cl)nc3[nH]cnc23)c(Br)c1", "selectivity ratio": 4}
{"smi": "COc1ccc(Cn2cnc3c(Nc4ccc(C)cc4-c4cc(C)n[nH]4)nc(Cl)nc32)cc1", "selectivity ratio": 58}
{"smi": "COc1ccc(Cn2cnc3c(Nc4ccc(C)cc4Br)nc(Cl)nc32)cc1", "selectivity ratio": 15}
{"smi": "COc1ccc(Cn2cnc3c(Cl)nc(Cl)nc32)cc1", "selectivity ratio": 2}

For the 2 compounds below, give their selectivity ratio values.
1. Cc1ccc(Nc2nc(Nc3ccc(C)cc3-c3cc(C)n[nH]3)c3ccccc3n2)cc1
2. Cc1ccc(Nc2nc(Cl)nc3ccccc23)c(Br)c1

1. 2
2. 13

---

- Test system: dengue virus type 2
- procedure.details: Antiviral activity against Dengue virus serotype 2 infected in African green monkey Vero B cells assessed as inhibition of viral RNA replication after 4 days by RT-qPCR method
- Assay type: functional
- conditions: 96 h, read-out: ED50 (the source's name)
measurement.type: EC50 (µM)
One number for each entry, in µM.

Known results for molecules:
{"smi": "Cc1ccc(Nc2nc(Cl)nc3[nH]cnc23)c(-c2cc(C)n[nH]2)c1", "measurement.type": "EC50", "reading.unit": "µM", "assay.result": 28.9}
{"smi": "Cc1ccc(Nc2nc(Nc3ccc(C)cc3-c3cc(C)n[nH]3)c3ccccc3n2)cc1", "measurement.type": "EC50", "reading.unit": "µM", "assay.result": 2.6}
{"smi": "COc1ccc(Cn2cnc3c(Cl)nc(Cl)nc32)cc1", "measurement.type": "EC50", "reading.unit": "µM", "assay.result": 17.6}
{"smi": "Cc1ccc(Nc2nc(Cl)nc3ccccc23)c(-c2cc(C)n[nH]2)c1", "measurement.type": "EC50", "reading.unit": "µM", "assay.result": 9.2}
{"smi": "COc1ccc(Cn2cnc3nc(Cl)nc(Cl)c32)cc1", "measurement.type": "EC50", "reading.unit": "µM", "assay.result": 9.9}

List EC50 for every entry below, keeping the order given.
1. Cc1ccc(Nc2nc(Nc3ccc(F)cc3)nc3ccccc23)c(-c2cc(C)n[nH]2)c1
2. COc1ccc(Cn2cnc3c(Nc4ccc(C)cc4Br)nc(Cl)nc32)cc1
3. Cc1ccc(Nc2nc(Cl)nc3ccccc23)c(Br)c1
4. COc1ccc(Cn2cnc3c(Nc4ccc(C)cc4-c4cc(C)n[nH]4)nc(Cl)nc32)cc1

[6.7, 7.2, 10.9, 1.9]

So, Cc1ccc(Nc2nc(Cl)nc3[nH]cnc23)c(Br)c1 ? Its EC50 was 33.5

---

- procedure.details: Cytotoxicity against African green monkey Vero B cells assessed as decrease in cell viability by microscopic method
- Format: cell-based
- conditions: chlorocebus sabaeus
For each of the compounds below, state its CC50.
Answers are plain numbers, in µM.

Below is a list of compounds. For each, state its recorded CC50.
1. Cc1ccc(Nc2nc(Cl)nc3ccccc23)c(Br)c1
2. COc1ccc(Cn2cnc3c(Nc4ccc(C)cc4-c4cc(C)n[nH]4)nc(Cl)nc32)cc1
3. COc1ccc(Cn2cnc3c(Nc4ccc(C)cc4Br)nc(Cl)nc32)cc1

[32, 10, 63]

---

- procedure.details: Inhibition of Dengue virus serotype 2 N-terminal His6-tagged NS5 RdRp activity expressed in baculovirus expression system using poly(C)/5'-biotinylated oligo (G)20 as template/primer assessed as inhibition of [3H]GTP incorporation after 20 mins by scintillation proximity assay
- Parameters: species or system dengue virus type 2
measurement.type: pIC50
One number for each entry, as −log10 of the molar value.

Measured pIC50, O=C(O)c1ccccc1NS(=O)(=O)c1cccc(-c2cnn(Cc3ccccc3)c2)c1 : 6.15

---

- procedure.details: Cytotoxicity against African green monkey Vero B cells assessed as decrease in cell viability by MTS/PMS assay
- Format: cell-based
- conditions: chlorocebus sabaeus
measurement.type: CC50 (µM)
Numbers only, in µM.

{"smi": "COc1ccc(Cn2cnc3nc(Cl)nc(Cl)c32)cc1", "CC50, µM": 12.3}

List the reported CC50 of each molecule below.
1. Cc1ccc(Nc2nc(Nc3ccc(F)cc3)nc3ccccc23)c(-c2cc(C)n[nH]2)c1
2. Cc1ccc(Nc2nc(Cl)nc3ccccc23)c(-c2cc(C)n[nH]2)c1
3. COc1ccc(Cn2cnc3c(Cl)nc(Cl)nc32)cc1
4. Cc1ccc(Nc2nc(Nc3ccc(C)cc3-c3cc(C)n[nH]3)c3ccccc3n2)cc1

[8.7, 97, 32.4, 5.8]

---

Give measured CC50 for each item. Keep answers brief.
- procedure.details: Cytotoxicity against African green monkey Vero B cells assessed as decrease in cell viability by MTS/PMS assay
- Format: cell-based
- conditions: chlorocebus sabaeus

{"smi": "Cc1ccc(Nc2nc(Cl)nc3[nH]cnc23)c(-c2cc(C)n[nH]2)c1", "CC50": "> 147 µM"}

// for each compound below, give its CC50
1. COc1ccc(Cn2cnc3c(Nc4ccc(C)cc4-c4cc(C)n[nH]4)nc(Cl)nc32)cc1
2. Cc1ccc(Nc2nc(Cl)nc3ccccc23)c(Br)c1
3. COc1ccc(Cn2cnc3c(Nc4ccc(C)cc4Br)nc(Cl)nc32)cc1
4. Cc1ccc(Nc2nc(Cl)nc3[nH]cnc23)c(Br)c1

["> 109 µM", "> 144 µM", "> 109 µM", "> 148 µM"]
